study system: F protein of human metapneumovirus strain JPS05-21 (type B2), on infectious virus (human metapneumovirus, strain JPS05-21 …)
assay method text: cell-based or functional assay
Label class 1 when IC60, neutralizing activity (hMPV infection of LLC-MK2 cells; GraphPad Prism 6) >= 0.3 µg/mL; otherwise class 0.

Take a look at these entries with their results.
binder: EV046136 (antibody, human IgG1, kappa, V domains shown) VH: QVQLVQSGAEMKKPGASVKVSCKASGYTFTDYFIHWVRQAPGQGLEWMGWVNPNSGATNYAQKFQGRVTMTGDTSLSAAYVDLSRLSSDDSAVYYCARDRGLGISSTRNDAFDIWGQGTTVTVSS VL: DIQLTQSPSSLSASVGDRVTITCQPSQGIRNFLNWYQQKPGKAPNLLIYDASNLETGVASRFSGSGSGTHFTLTISSLQPEDIATYFCQQYHSLPLTFGGGTKVEIKR
assigned class: class 1
//
binder: EV046116 (antibody, human IgG1, kappa, V domains shown) VH: QVQLQESGPGLVKPSETLSLTCTVSGGSISRDYWSFIRQPAGKGLEWIGRIYHNGDTNYNPSLKSRVTMSQDTSKNQFFLRLRHVTAADTAVYYCAREGSAGTFGQADWGQGTLVIVYS VL: EIVMTQSPATLSVSPGERATLSCRASQSISNNLAWYQQKPGQAPRLLIYGASTRATGIPARFSGGGSGTEFTLTISSLQSEDFAVYYCQQYENWLLYTFGQGTKLEIKR
assigned class: class 1
//
binder: EV046113 (antibody, human IgG1, kappa, V domains shown) VH: QVQLVESGGGLVRPGGSLRLSCAASGFTFSDYFMTWIRQAPGKGLEWVSYINSIGSVIFYADSVEGRFTVSRDNTMKSLFLQMNSLTAEDTAVYYCARSCRISYGASGGFSCGMDVWGQGTPVTVSS VL: DIQMTQSPSSLSASVGDRVTITCQASQSIRENINWYQQKTGKAPKLLIYDASILETGVPSRFSGSGSGTHFTFTISSLQPEDMATYYCQQYHHLITFGQGTRLDIKR
assigned class: class 1
//
binder: EV046142 (antibody, human IgG1, lambda, V domains shown) VH: QVQLVQSGAEVKKPGSSVRVSCKASGGTFSTYGINWVRQARGQGLEWMGTVIPTFEKTYYAQGFQGRVTIAADGSKNTVYMELRRLTSEDSAIYFCTRFFTPYCSGGSCYLDLWGPGTLVTVSS VL: QSVLTQPPSVSGAPGQSVTISCAGSSSNIGAGYDVHWYQHLPGTAPRLLIYSNTNRPSGVPDRFSGSKSGASASLAITGLQAEDEADYYCQSYDSGVVFGGGTKLTVLR
assigned class: class 1

Lookup: Identify whether the reported IC60, neutralizing activity (hMPV infection of LLC-MK2 cells; GraphPad Prism 6) of the following binder is 0.3 µg/mL or greater: EV046135 (antibody, human IgG1, lambda, V domains shown) VH: QEQLVESGGDLVKPGGSLRITCAASGFTLSGYALVWVRQAPGRGLEWIADITASSTYINYAASVKGRFTISRDNAQSSLFLQMSSLRADDTGVYFCARLPHLPGFFDLWGRGTLVSVSS VL: QSVLTQPPSVSGAPGQRVTISCTGNSSNIGAGYDVNWYQHLPGTAPKLLISVNTNRPSGVPDRFSGSMSGTSASLAITGLQAEDEADYYCQSYDRRLSGYVFGTGTKVTVLG
Found: class 0
